system: Hepatotoxicity; assay: FDA HLAED, lactate dehydrogenase (LDH) increase; settings: human; further: reference of the scale not given here
LDH Increase - Index Value listing for selected compounds.
observable: LDH Increase - Index Value

COc1ccc2[nH]c([S+]([O-])Cc3ncc(C)c(OC)c3C)nc2c1 (configuration not stated) [OMEPRAZOLE]
0.5
Clc1ccc(CSC(Cn2ccnc2)c2ccc(Cl)cc2Cl)cc1 (configuration not stated) [SULCONAZOLE]
0
CC(C)OC(=O)CCC/C=C\C[C@@H]1[C@@H](CC[C@@H](O)CCc2ccccc2)[C@H](O)C[C@@H]1O [LATANOPROST]
0
FCOC(C(F)(F)F)C(F)(F)F [SEVOFLURANE]
1.6
CC(C)N1CCN(c2ccc(OCC3COC(Cn4cncn4)(c4ccc(Cl)cc4Cl)O3)cc2)CC1 (configuration not stated) [TERCONAZOLE]
0
C=C1c2c(Cl)ccc(O)c2C(=O)C2=C(O)[C@]3(O)C(=O)C(C(N)=O)=C(O)[C@@H](N(C)C)[C@@H]3[C@@H](O)[C@H]12 [MECLOCYCLINE]
0
CO[C@H]1/C=C/O[C@@]2(C)Oc3c(C)c(O)c4c(c3C2=O)C2=NC3(CCN(CC(C)C)CC3)NC2=C(NC(=O)/C(C)=C\C=C\[C@H](C)[C@H](O)[C@@H](C)[C@@H](O)[C@@H](C)[C@H](OC(C)=O)[C@@H]1C)C4=O [RIFABUTIN]
5.3
